Reported EC50 values for the following compounds.
Test: alpha-synuclein stem-loop luciferase translation blockers – H4 neuroglioma cells, luminescence, confirmation (AID 1988)
Type: functional, cell-based
Active and inactive are the calls of the source.

Guide cases for EC50, answers given:
For the compound "COc1ccc(Cc2nnc(Nc3ccc(C)cc3)o2)cc1OC" , what EC50 is on record?
11.5 µM (active)

For the compound "CCOC(=O)COc1cccc2c(=O)n(CC(=O)NCc3ccc(F)cc3)ccc12" , what EC50 is on record?
< 0.1 µM (active)

For the compound CC1=C(C(=O)OC2CCCCCCC2)C(c2ccc(O)cc2)NC(=O)N1 (stereo unspecified) , what EC50 is on record?
23.9 µM (active)

New cases:
For the compound CCOC(=O)C1CCCN(C(=O)CCNC(=O)Cn2ccc3ccccc3c2=O)C1 (stereo unspecified) , what EC50 is on record?
> 120 µM (not active)

For the compound "Cc1cc(C)c(-c2csc(NC(=O)/C=C/c3cccs3)n2)c(C)c1" , what EC50 is on record?
9.05 µM (active)

For the compound "c1ccc(-c2noc(-c3ccc4ccccc4c3)n2)cc1" , what EC50 is on record?
< 0.1 µM (active)

###

Test system: Streptococcus sp. 'group A'
Test: Streptococcus pyogenes SK(-)GAS viability under kanamycin – luminescence, BacTiterGlo, confirmation, counter-screen for streptokinase expression inhibitor project, dose response (AID 1900)
Type: functional, organism-based
Calls of active or inactive are those of the source.
TEST READOUT: EC50

For the molecule "CCC(/C=C1\Sc2ccc3ccccc3c2N1C)=C\c1sc2ccc3ccccc3c2[n+]1C" , what EC50 is on record?
3.13 µM (active)

For the molecule "COc1ccc(NC(=O)CSc2ccc3nnc(-c4ccccn4)n3n2)c(OC)c1" , what EC50 is on record?
> 150 µM (not active)

For the molecule CC12CCC(c3c(C(=O)Nc4nccs4)nn(-c4ccccc4)c31)C2(C)C (stereo not drawn) , what EC50 is on record?
6.56 µM (active)

For the molecule "Oc1cccc(-c2nc3ccc4ccccc4c3c3c2CCC3)c1" , what EC50 is on record?
10 µM (active)

For the molecule Clc1ccc(C2C3=C(Nc4ncnn42)c2ccccc2CC3)cc1 (stereo not drawn) , what EC50 is on record?
7.5 µM (active)

For the molecule "Cc1ccccc1-n1nc(C(=O)c2cccs2)cc(-c2nc3ccccc3[nH]2)c1=N" , what EC50 is on record?
2.99 µM (active)

New cases:
For the molecule "CC[n+]1c(/C=C/N(C)c2ccccc2)n(-c2ccccc2)c2ccc(-c3nc4ccccc4s3)cc21" , what EC50 is on record?
3.27 µM (active)

For the molecule "Nc1nonc1-n1nnc(C(=O)N/N=C/c2cc(Cl)ccc2O)c1CN1CCCCCC1" , what EC50 is on record?
4.87 µM (active)

###

Biological target: DNA dC->dU-editing enzyme APOBEC-3G (Homo sapiens, UniProt Q9HC16);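 note: Dose-response counterscreen measuring inhibition of APOBEC3G DNA deaminase activity, run while confirming APOBEC3A inhibitors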
Sequence (Q9HC16 whole entry): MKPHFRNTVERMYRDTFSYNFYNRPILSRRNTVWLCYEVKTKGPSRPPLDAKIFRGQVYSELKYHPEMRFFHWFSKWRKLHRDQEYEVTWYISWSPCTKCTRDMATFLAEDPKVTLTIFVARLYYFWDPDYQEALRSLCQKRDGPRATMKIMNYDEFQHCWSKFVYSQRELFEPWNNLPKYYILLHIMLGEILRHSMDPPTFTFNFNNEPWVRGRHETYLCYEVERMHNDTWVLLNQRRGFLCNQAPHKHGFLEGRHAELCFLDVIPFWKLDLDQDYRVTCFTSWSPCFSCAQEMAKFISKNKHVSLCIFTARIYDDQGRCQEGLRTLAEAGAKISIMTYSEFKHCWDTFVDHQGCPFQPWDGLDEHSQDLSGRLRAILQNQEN
Type: functional
The source made the active and inactive calls.
TEST READOUT: IC50

For the compound "COc1ccc(N=Nc2[nH]c3ccc(C)cc3c2O)cc1" , what IC50 is on record?
7.98 µM (active)

For the compound "COc1ccccc1-c1noc(CSc2nc(C)cc(O)n2)n1" , what IC50 is on record?
19.4 µM (active)

For the compound "O=C(O)c1ccc(CSc2n[nH]c(-c3ccco3)n2)cc1" , what IC50 is on record?
19.3 µM (active)

For the compound Cc1[nH]c2ccccc2c1/C=C(\C#N)C(=O)NC(C)c1ccccc1 (stereo not given) , what IC50 is on record?
2.64 µM (active)

For the compound CC(=O)c1ccc[n+](CC(=O)NC(C)c2ccccc2)c1 (stereo not given) , what IC50 is on record?
6.17 µM (active)

###

Experiment: non-specific 3'UTR reporter inhibition in Clone20-Shn3RL – cell-based, Renilla luciferase, cherry-picked, counter-screen for Shn3 inhibitor project, dose response (AID 624133)
Format: functional
Activity calls are given as the source filed them.
TEST READOUT: AC50

For the compound "CN(C)C1=NC[C@H](Cc2ccccc2)N1CCCCc1ccccc1" , what AC50 is on record?
4.5 µM (active)

For the compound "NC1=NC[C@@H](CC2CCCCC2)N1CCc1cc(C(F)(F)F)cc(C(F)(F)F)c1" , what AC50 is on record?
24.8 µM (active)

New cases:
For the compound "C=CCn1c(C)cc(C(=O)CN2C(=O)c3ccccc3S2(=O)=O)c1C" , what AC50 is on record?
23.2 µM (active)

For the compound "C=CCNc1nc(-c2ccccn2)nnc1-c1ccccc1" , what AC50 is on record?
3.97 µM (active)

###

Target: Cytochrome P450 2C9 (Homo sapiens)
Sequence (P11712 whole entry): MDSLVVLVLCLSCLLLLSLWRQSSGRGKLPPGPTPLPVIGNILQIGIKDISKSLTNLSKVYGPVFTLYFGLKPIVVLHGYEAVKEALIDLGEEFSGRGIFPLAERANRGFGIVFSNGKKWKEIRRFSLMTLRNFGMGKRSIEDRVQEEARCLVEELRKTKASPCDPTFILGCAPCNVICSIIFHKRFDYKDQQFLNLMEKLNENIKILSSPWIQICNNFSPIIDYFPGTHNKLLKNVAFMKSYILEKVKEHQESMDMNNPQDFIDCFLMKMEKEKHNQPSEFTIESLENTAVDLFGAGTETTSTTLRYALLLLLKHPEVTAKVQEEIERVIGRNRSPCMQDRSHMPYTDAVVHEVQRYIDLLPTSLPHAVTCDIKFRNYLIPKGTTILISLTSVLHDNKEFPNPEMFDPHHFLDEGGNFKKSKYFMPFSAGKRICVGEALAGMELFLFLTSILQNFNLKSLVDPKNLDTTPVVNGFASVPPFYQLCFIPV
TEST READOUT: AC50

For the molecule "COc1ccccc1N1CCN(CCCCNC(=O)c2ccc(-c3ccc(C(C)=O)cc3)cc2)CC1" , what AC50 is on record?
inconclusive

For the molecule "O=S(=O)(c1ccccc1)c1cnn2c(C(F)(F)F)cc(-c3ccc(F)cc3)nc12" , what AC50 is on record?
inconclusive

For the molecule "Cc1[nH]n(-c2ccccc2)c(=O)c1CCOC(=O)c1cccc(C(F)(F)F)c1" , what AC50 is on record?
inconclusive

###

Molecular target: Ubiquitin-conjugating enzyme E2 N (Homo sapiens, UniProt P61088);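 note: Dose-response confirmation in a TR-FRET assay detecting UBC13-driven polyubiquitin chain formation, inhibition measured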
Sequence (P61088 whole entry): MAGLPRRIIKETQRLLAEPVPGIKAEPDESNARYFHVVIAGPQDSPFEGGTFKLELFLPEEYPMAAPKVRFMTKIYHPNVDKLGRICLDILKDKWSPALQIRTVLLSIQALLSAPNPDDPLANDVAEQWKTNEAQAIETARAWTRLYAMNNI
Assay type: functional
Activity calls are given as the source filed them.
Thanks in advance; please answer with one of these: class 1 = active, class 0 = inactive

Outcome logged for CCCCCCCCNC(C)C(O)c1ccc(SC(C)C)cc1 (stereo not given) in this assay:
class 0

Outcome logged for "C#CCOCCOCCOCCNc1nc(N2CCN(C(=O)[C@H](CCCCN)n3cc(CN)nn3)CC2)nc(N2CCN(C(=O)[C@H](CCC(=O)O)n3cc([C@@H](N)CCCCN)nn3)CC2)n1" in this assay:
class 1

Outcome logged for O=C1c2cccc3cccc(c23)C(=O)N1CCN1CCN(CC(O)COc2ccc3ccccc3c2)CC1 (stereo not given) in this assay:
class 1

Outcome logged for "O=C(CCCCn1c(=O)c2ccccc2n(Cc2ccccc2F)c1=O)NC1CCN(Cc2ccccc2)CC1" in this assay:
class 1

Next:
Outcome logged for "Cc1nc2ccccc2c2oc(C(=O)N3CCC(N4CCCCC4)CC3)cc12" in this assay:
class 0

###

Target: Beta-galactosidase (Escherichia coli)
Sequence (Q8VNN2 whole entry): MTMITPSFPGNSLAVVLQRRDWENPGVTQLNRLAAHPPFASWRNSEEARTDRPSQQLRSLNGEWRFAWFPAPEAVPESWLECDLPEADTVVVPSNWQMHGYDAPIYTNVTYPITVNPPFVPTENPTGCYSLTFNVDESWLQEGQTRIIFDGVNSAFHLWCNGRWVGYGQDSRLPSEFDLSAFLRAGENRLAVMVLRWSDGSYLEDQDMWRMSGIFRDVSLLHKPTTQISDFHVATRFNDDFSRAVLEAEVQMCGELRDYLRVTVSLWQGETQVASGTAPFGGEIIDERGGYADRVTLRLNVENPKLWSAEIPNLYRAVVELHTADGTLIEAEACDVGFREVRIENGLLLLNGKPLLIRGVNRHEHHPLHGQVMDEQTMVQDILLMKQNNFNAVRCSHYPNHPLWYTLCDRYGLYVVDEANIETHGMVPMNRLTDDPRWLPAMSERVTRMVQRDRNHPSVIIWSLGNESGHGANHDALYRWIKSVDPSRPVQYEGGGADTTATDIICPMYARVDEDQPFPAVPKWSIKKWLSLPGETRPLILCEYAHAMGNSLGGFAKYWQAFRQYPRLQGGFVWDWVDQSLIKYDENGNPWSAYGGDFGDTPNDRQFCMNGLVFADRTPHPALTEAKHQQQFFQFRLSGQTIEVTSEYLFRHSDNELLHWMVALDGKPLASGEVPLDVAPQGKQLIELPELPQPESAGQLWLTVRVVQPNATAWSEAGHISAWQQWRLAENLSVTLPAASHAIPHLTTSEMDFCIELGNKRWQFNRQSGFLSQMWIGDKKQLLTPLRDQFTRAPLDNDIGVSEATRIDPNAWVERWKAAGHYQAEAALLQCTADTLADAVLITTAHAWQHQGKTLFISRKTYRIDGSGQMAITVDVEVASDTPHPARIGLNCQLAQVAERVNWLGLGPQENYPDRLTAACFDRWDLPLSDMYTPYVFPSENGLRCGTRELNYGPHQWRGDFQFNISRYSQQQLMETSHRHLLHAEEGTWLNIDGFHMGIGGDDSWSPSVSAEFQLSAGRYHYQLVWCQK
Experiment: Dose response counterscreen for EBI2 assay utilizing the enzyme, b-galactosidase.
Format: functional
Active and inactive are the calls of the source.
TEST READOUT: IC50

For the molecule "O=C(c1ccc(-n2cnnn2)cc1)N1CCN(C(c2ccccc2)c2ccccc2)CC1" , what IC50 is on record?
> 80 µM (inactive)

For the molecule "O=C(COc1ccc(Br)cc1)N1CCN(C2CCCC2)CC1" , what IC50 is on record?
> 80 µM (inactive)

For the molecule "CC(C)(C)c1nnc(N/N=C/c2ccc(Br)cc2)n(N)c1=O" , what IC50 is on record?
> 80 µM (inactive)

Please examine the following record next.
For the molecule "CCOC(=O)c1ccc(/N=c2\sc(C(=O)OC)cc(=O)n2-c2ccc(C(=O)OCC)cc2)cc1" , what IC50 is on record?
> 80 µM (inactive)

###

Molecular target: Paired box protein Pax-8 (Homo sapiens, UniProt Q06710)
Sequence (Q06710 whole entry): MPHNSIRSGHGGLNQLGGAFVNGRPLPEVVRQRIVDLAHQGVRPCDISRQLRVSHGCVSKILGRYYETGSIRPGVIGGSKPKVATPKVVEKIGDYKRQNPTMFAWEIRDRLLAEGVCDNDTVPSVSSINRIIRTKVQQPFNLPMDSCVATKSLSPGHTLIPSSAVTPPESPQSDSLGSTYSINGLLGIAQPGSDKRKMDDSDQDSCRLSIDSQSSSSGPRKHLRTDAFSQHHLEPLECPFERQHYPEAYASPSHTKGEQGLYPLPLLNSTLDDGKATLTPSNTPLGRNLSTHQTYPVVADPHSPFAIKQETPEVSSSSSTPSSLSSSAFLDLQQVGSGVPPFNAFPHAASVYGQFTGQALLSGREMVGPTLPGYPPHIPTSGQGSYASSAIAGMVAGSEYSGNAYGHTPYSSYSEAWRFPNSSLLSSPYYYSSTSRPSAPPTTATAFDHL
Experiment: PAX8 transcriptional activity inhibition in RMG-I – RMG-I cells, luciferase, cherry-pick, dose response (AID 687027);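 note: luciferase reporter driven by Pax8 target thyroperoxidase promoter measured by SteadyGlo luminescence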
Format: functional, cell-based
Active and inactive are the calls of the source.
TEST READOUT: AC50

Guide cases for AC50, answers given:
For the molecule CCN(c1nc(N)c(C(=O)NC(=N)N)nc1Cl)C(C)C [5-(N-ETHYL-N-ISOPROPYL)AMILORIDE] , what AC50 is on record?
20.9 µM (active)

For the molecule "COc1ccccc1-n1cc([C@@H]2C[C@H]3CN(c4ccccc4)C(=O)[C@]34CCCN24)cn1" , what AC50 is on record?
5.21 µM (active)

Please examine the following record next.
For the molecule "COc1ccc(OC)c(-c2nnc3n2N=C(c2ccc(OC)c(OC4CCCC4)c2)CS3)c1" , what AC50 is on record?
3.49 µM (active)

###

Target: Glucose-6-phosphate 1-dehydrogenase (Homo sapiens, UniProt P11413)
Sequence (P11413 whole entry): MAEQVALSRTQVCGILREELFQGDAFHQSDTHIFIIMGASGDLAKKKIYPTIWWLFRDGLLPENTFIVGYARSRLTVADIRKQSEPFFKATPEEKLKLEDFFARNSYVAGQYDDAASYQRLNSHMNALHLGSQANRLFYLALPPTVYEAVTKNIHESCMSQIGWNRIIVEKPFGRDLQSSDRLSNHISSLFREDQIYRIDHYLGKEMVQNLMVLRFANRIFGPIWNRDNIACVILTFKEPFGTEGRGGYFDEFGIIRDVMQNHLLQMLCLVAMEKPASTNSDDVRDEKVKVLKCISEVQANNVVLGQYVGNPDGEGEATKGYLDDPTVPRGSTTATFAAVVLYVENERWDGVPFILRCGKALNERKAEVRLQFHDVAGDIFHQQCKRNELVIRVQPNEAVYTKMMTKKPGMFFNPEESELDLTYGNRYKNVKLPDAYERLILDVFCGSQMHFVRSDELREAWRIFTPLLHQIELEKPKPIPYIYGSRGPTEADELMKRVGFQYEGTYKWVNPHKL
Assay: inhibition of Homo sapiens G6PD, dose series – biochemical, fluorescence, selectivity assay for P. falciparum G6PD inhibitor project, dose response (AID 504792)
Assay type: functional
Activity calls are given as the source filed them.
Reported IC50 values for the following compounds.

For the compound "O=C1C=CC(=O)N1CCNc1ncc(C(F)(F)F)cc1Cl" , what IC50 is on record?
> 80 µM (inactive)

For the compound "Cc1cc(C)c2c(=O)n(CC(=O)Nc3ccc(Cl)cc3)sc2n1" , what IC50 is on record?
20.7 µM (inactive)

For the compound "CCn1c2ccccc2c2nc3cc(S(=O)(=O)N4CCOCC4)ccc3nc21" , what IC50 is on record?
> 80 µM (inactive)

Please examine the following record next.
For the compound "Cc1nc2ccccn2c1-c1ccnn1S(=O)(=O)c1ccc(F)cc1" , what IC50 is on record?
> 80 µM (inactive)
